Recorded values, source paper PMC9455983.

Molecular target: mu-opioid receptor (MOR) (Rattus norvegicus, UniProt P33535)
Construct: Rat cortices were homogenized using 50 mM Tris, pH 7.4, and centrifuged at 16,500 rpm for 10 min; from tissue; host or cells: rat cortex membranes
Sequence (P33535 whole entry): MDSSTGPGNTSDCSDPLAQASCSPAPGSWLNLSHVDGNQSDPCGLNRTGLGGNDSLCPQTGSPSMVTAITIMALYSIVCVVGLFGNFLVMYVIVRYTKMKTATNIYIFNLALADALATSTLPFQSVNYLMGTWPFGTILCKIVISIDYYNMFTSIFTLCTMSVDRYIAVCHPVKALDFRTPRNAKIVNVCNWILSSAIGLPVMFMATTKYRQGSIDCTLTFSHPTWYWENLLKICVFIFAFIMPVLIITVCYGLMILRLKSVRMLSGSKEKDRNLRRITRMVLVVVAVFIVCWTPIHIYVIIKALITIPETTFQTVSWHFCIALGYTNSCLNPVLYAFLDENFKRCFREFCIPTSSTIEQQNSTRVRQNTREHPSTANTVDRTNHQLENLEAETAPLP
Experiment: MOR radioligand competition binding assay ([3H]-DAMGO)
Settings: Mu screening results, mean of two experiments; read-out: Ki
Protocol: MOR binding assay: Rat cortices were homogenized using 50 mM Tris, pH 7.4, and centrifuged at 16,500 rpm for 10 min. The pellets were resuspended in fresh buffer and incubated at 37 °C for 30 min. […] All three binding assays were terminated by filtration through GF/B filters, soaked in 5 mg/mL bovine serum albumin, 50 mM Tris, pH 7.4, on a Tomtec Mach II Harvester 96. […] Bound radioactivity was counted on a Wallac Betaplate Liquid Scintillation Counter. […]
pKi: −log10 of the molar value.

| Structure Smiles String | Target Entity | pKi |
| --- | --- | --- |
| Cc1cc(O)cc(C)c1C[C@H]1CN([C@@H](Cc2ccccc2)CN2C(=N)NC[C@@H]2Cc2ccc(O)cc2)C(=N)N1 | mu-opioid receptor (MOR) (Rattus norvegicus, UniProt P33535) | 7.11 |
| CC(C)C[C@@H](CN1C(=N)NC[C@@H]1Cc1ccccc1)N1C[C@H](Cc2ccccc2)NC1=N | mu-opioid receptor (MOR) (Rattus norvegicus, UniProt P33535) | 6.05 |
| Cc1cc(O)cc(C)c1C[C@H]1CN([C@@H](Cc2ccccc2)CN2C(=N)NC[C@@H]2C)C(=N)N1 | mu-opioid receptor (MOR) (Rattus norvegicus, UniProt P33535) | 6.84 |
| Cc1cc(O)cc(C)c1C[C@H]1CN([C@@H](Cc2c(C)cc(O)cc2C)CN2C(=N)NC[C@@H]2Cc2ccc(O)cc2)C(=N)N1 | mu-opioid receptor (MOR) (Rattus norvegicus, UniProt P33535) | 6.92 |
| Cc1cc(O)cc(C)c1C[C@H]1CN([C@@H](CC(C)C)CN2C(=N)NC[C@@H]2C)C(=N)N1 | mu-opioid receptor (MOR) (Rattus norvegicus, UniProt P33535) | 6.70 |
| C[C@H]1CNC(=N)N1C[C@H](Cc1ccccc1)N1C[C@H](Cc2ccccc2)NC1=N | mu-opioid receptor (MOR) (Rattus norvegicus, UniProt P33535) | 5.47 |
| CC(C)C[C@H]1CN([C@@H](Cc2ccccc2)CN2C(=N)NC[C@@H]2Cc2ccccc2)C(=N)N1 | mu-opioid receptor (MOR) (Rattus norvegicus, UniProt P33535) | 5.59 |
